assay-method-text: Aqueous solubility measurements
Assay type: physicochemical
experimental-parameters: final pH of saturated solution; media pH 7.4 (USP); 24 hours at 25° C.
measured-quantity: pH

> print(dat)
                                   compound  reported.measurement
1  Cc1nc(-c2ccc(OCC(C)C)c(C#N)c2)sc1C(=O)O [Form XI]                 6.905
2  Cc1nc(-c2ccc(OCC(C)C)c(C#N)c2)sc1C(=O)O [Form G of U.S. Pat. No. 6,225,474, reference compound]                 6.985
3  Cc1nc(-c2ccc(OCC(C)C)c(C#N)c2)sc1C(=O)O [Form V]                 6.960
4  Cc1nc(-c2ccc(OCC(C)C)c(C#N)c2)sc1C(=O)O [Form IX]                 6.690
